Where these numbers come from: patent US10730868B2

# TARGET UNDER TEST: UniProt:Q96RI0
# Sequence (Q96RI0 18-385): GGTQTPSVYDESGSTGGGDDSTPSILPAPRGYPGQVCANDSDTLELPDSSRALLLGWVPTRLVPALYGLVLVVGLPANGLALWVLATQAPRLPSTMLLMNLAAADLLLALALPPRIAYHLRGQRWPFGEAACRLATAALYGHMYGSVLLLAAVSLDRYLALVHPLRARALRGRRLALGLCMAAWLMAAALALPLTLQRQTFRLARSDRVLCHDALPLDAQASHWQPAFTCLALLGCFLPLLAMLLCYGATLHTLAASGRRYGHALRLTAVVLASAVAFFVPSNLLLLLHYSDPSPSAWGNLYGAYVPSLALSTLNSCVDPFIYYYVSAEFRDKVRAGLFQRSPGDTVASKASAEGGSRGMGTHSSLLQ
# ASSAY PROCEDURE: PAR4 FLIPR assay (antagonism of agonist-peptide-induced calcium mobilization)
# Format: cell-based
# RUN PARAMETERS: H-Ala-Phe(4-F)-[…]NH2-induced intracellular calcium mobilization, PAR4-expressing HEK293 cells; read-out: PAR4 FLTPR assay (IC50)
READOUT LABEL: IC50 (nM)
Respond numerically; units are nM and should not be typed.

Here is how some molecules turned out for IC50.
MOLECULE: COc1cnc2c(-c3nc4cc(F)c(O[C@@H]5CC[C@@H]5OC(=O)Nc5cnc(C)nc5)cc4s3)cc(Cl)cc2c1 (racemic)
UNIT INFO: nM
VALUE: 1.1
--
MOLECULE: COc1cnc2c(-c3nc4cc(F)c(O[C@@H]5CCC[C@@H]5OC)cc4s3)cc(C)cc2n1 (racemic)
UNIT INFO: nM
VALUE: 83
--
MOLECULE: COc1cnc2c(-c3nc4cc(F)c(O[C@@H]5CN(S(C)(=O)=O)CC[C@@H]5OC(=O)Nc5cnc(C)nc5)cc4s3)cc(C)cc2n1 (racemic)
UNIT INFO: nM
VALUE: 72
--
MOLECULE: COc1cnc2c(-c3nc4cc(F)c(OC5CC(F)(F)CC[C@@H]5OC(=O)Nc5cncc(C#N)c5)cc4s3)cc(C)cc2n1 (mixture of isomers)
UNIT INFO: nM
VALUE: 5.7
--
MOLECULE: COc1cnc2c(-c3nc4cc(F)c(O[C@@H]5CC(F)(F)C[C@@H]5OC(=O)Nc5cnc(C)nc5)cc4s3)cc(C)cc2n1 (racemic)
UNIT INFO: nM
VALUE: 9.2

Measured IC50 (UniProt:Q96RI0), entry COc1cnc2c(-c3nc4cc(F)c(O[C@@H]5CC(C)(C)C[C@@H]5OC(=O)Nc5cnc(C)nc5)cc4s3)cc(C)cc2n1 (single isomer, unassigned; enantiomer 2) [Example 85] : 41

Measured IC50 (UniProt:Q96RI0), entry COc1cnc2c(-c3nc4cc(F)c(O[C@H]5CC(C)(C)C[C@H]5OC(=O)Nc5cnc(C)nc5)cc4s3)cc(C)cc2n1 (single isomer, unassigned; enantiomer 1) : 5.4

Measured IC50 (UniProt:Q96RI0), entry COc1ccc(NC(=O)O[C@@H]2CCC[C@@H]2Oc2cc3sc(-c4cc(C)cc5nc(OC)cnc45)nc3cc2F)cn1 [Example 22] : 2.4

Measured IC50 (UniProt:Q96RI0), entry COc1cnc2c(-c3nc4cc(F)c(O[C@@H]5CCC[C@H]5OC)cc4s3)cc(C)cc2n1 (racemic) : 320

Measured IC50 (UniProt:Q96RI0), entry COc1cnc2c(-c3nc4cc(F)c(OC5CC(F)(F)CC[C@@H]5OC(=O)Nc5cnc(C)nc5)cc4s3)cc(C)cc2n1 (mixture of isomers) : 0.67

Measured IC50 (UniProt:Q96RI0), entry COc1cnc2c(-c3nc4cc(F)c(O[C@@H]5CCC[C@@H]5OC(=O)Nc5cccnc5)cc4s3)cc(CO)cc2n1 (racemic) : 25

Measured IC50 (UniProt:Q96RI0), entry COc1ccc(NC(=O)O[C@@H]2CCC[C@@H]2Oc2cc3sc(-c4cc(C)cc5nc(OC)cnc45)nc3cc2F)cn1 (racemic) [Example 33] : 3.1
